Taken from the supplement of paper PMC6757056.

B1: library; a variant is named by its letters at N, in order (parent)
chain: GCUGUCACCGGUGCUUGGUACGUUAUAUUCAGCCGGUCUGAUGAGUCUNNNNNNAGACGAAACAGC

variants of: B1; assay: normalized RNA/DNA level without ligand (relative to sTRSVctl = 100) (log10 (% of sTRSVctl)); HEK293T overexpressing SLC46A1; higher = less ribozyme self-cleavage, higher mRNA level; conditions: without (6R,S)-folinic acid; ligand present: no
For each record, write down the corresponding normalized RNA/DNA level without ligand (log10).

Req: So what does the record say about normalized RNA/DNA level without ligand (log10) for GCGGAC ?
Resp: 1.97

Req: So what does the record say about normalized RNA/DNA level without ligand (log10) for CGGAGC ?
Resp: 1.99

Req: So what does the record say about normalized RNA/DNA level without ligand (log10) for UCUUGU ?
Resp: 1.98

Req: So what does the record say about normalized RNA/DNA level without ligand (log10) for CACUCA ?
Resp: 2.01

Req: So what does the record say about normalized RNA/DNA level without ligand (log10) for GAUGGU ?
Resp: 2

Req: So what does the record say about normalized RNA/DNA level without ligand (log10) for AGUCUC ?
Resp: 2.03

Req: So what does the record say about normalized RNA/DNA level without ligand (log10) for GUCCGU ?
Resp: 2.02

Req: So what does the record say about normalized RNA/DNA level without ligand (log10) for GACCCG ?
Resp: 2.03

Req: So what does the record say about normalized RNA/DNA level without ligand (log10) for AAUGCC ?
Resp: 2.03

Req: So what does the record say about normalized RNA/DNA level without ligand (log10) for AAGGCU ?
Resp: 2

Req: So what does the record say about normalized RNA/DNA level without ligand (log10) for UGGAUC ?
Resp: 2.04

Req: So what does the record say about normalized RNA/DNA level without ligand (log10) for ACAGAA ?
Resp: 1.95

Req: So what does the record say about normalized RNA/DNA level without ligand (log10) for UUUGAU ?
Resp: 1.95

Req: So what does the record say about normalized RNA/DNA level without ligand (log10) for AGUACA ?
Resp: 1.98

Req: So what does the record say about normalized RNA/DNA level without ligand (log10) for CGUGAC ?
Resp: 2.01

Req: So what does the record say about normalized RNA/DNA level without ligand (log10) for GGAGCC ?
Resp: 2.02

Req: So what does the record say about normalized RNA/DNA level without ligand (log10) for AGAUGA ?
Resp: 1.97

Req: So what does the record say about normalized RNA/DNA level without ligand (log10) for CCAGGU ?
Resp: 2.03

Req: So what does the record say about normalized RNA/DNA level without ligand (log10) for GCAUUC ?
Resp: 2.03

Req: So what does the record say about normalized RNA/DNA level without ligand (log10) for AUUUAU ?
Resp: 2.01

Req: So what does the record say about normalized RNA/DNA level without ligand (log10) for GCAGCU ?
Resp: 2.03
